Recorded values, source PubChem BioAssay AID1362.

test: growth inhibition of WT strain, primary screen, mitochondrial fusion inhibitor project, WT and mutant strains, chemical genetic (AID 1362); details: mitochondrial fusion phenotypic screen, WT strain, growth inhibition; at 10 µM; hits give high values
Hit rate of the full screen: of about 190,000 compounds, about 4,000 (2.1%) were called active. Shown is part of a subset that was picked to be rich in actives.

- Molecule: "COC(=O)Cc1ccc(NC(=S)NCc2ccco2)cc1"
  inhibition / %: 6.76
- Molecule: "COc1ccccc1CC(=O)Nc1ccc([N+](=O)[O-])cc1OC"
  inhibition / %: -6.53
- Molecule: "COc1ccccc1N1CCN(CC(=O)NCCc2ccc(S(N)(=O)=O)cc2)CC1"
  inhibition / %: -0.9
- Molecule: "CSc1ccccc1NC(=O)CN(C)CC(=O)Nc1cccc(Br)c1"
  inhibition / %: 21.6
- Molecule: "COc1ccccc1CSc1nc2ccccc2[nH]1"
  inhibition / %: -4.85
- Molecule: "Cc1ccc(NC(=O)CN(C)Cc2ccc(F)cc2)c([N+](=O)[O-])c1"
  inhibition / %: 22

====

test: growth inhibition of WT strain, primary screen, mitochondrial fusion inhibitor project, WT and mutant strains, chemical genetic (AID 1362); conditions: mitochondrial fusion phenotypic screen, WT strain, growth inhibition; at 10 µM; hits give high values
Hit rate of the full screen: of about 190,000 compounds, about 4,000 (2.1%) were called active. Only a selection was taken, and actives are over-represented in it overall.

- Compound: "O=C(NCCCN1CCOCC1)c1ccccc1NS(=O)(=O)c1ccc(F)cc1"
  inhibition: "-8.48% (inactive)"
- Compound: "CCOC(=O)Cc1csc(SCC(=O)NC(C)C23CC4CC(CC(C4)C2)C3)n1 (configuration not stated)"
  inhibition: "59.2% (active)"
- Compound: "COc1cc(/C=N/O)cc(Br)c1OCc1cccc(Cl)c1"
  inhibition: "91.4% (active)"
- Compound: "COc1ccccc1CNC(=O)CNC(=O)c1cn(-c2ccccc2OC)c(=O)c2ccccc12"
  inhibition: "-8.54% (inactive)"
- Compound: "O=C(CCc1ccccc1)NCc1cccnc1"
  inhibition: "-0.16% (inactive)"
- Compound: "COc1ccc(CN(C)C(=S)Nc2ccc(Cl)cc2Cl)cc1"
  inhibition: "22.4% (inactive)"
- Compound: "CCOc1cc(/C=N/O)cc(Br)c1OC"
  inhibition: "-2.36% (inactive)"
- Compound: "CCOCCCNC(=O)C(NC(=O)Cc1c[nH]c2ccccc12)c1ccc(OC)cc1 (configuration not stated)"
  inhibition: "-1.73% (inactive)"
- Compound: "COCCNC(=O)c1ccc(-n2c(SCc3cccnc3)nc3ccccc3c2=O)cc1"
  inhibition: "-8.55% (inactive)"
- Compound: "CCOC(=O)c1sc(=NC(=O)/C=C/c2cccs2)n(C)c1C"
  inhibition: "11.4% (inactive)"
- Compound: "Cc1ccc(NC(=O)N2CCC(c3nc4c(nnn4Cc4c(F)cccc4Cl)c(=O)[nH]3)CC2)cc1"
  inhibition: "-0.04% (inactive)"
- Compound: "CCOc1c(Cl)cc(/C=N/O)cc1OC"
  inhibition: "-6.94% (inactive)"
- Compound: "Cc1cc(C)n2nc(SCC(N)=O)nc2n1"
  inhibition: "1.11% (inactive)"
- Compound: "CCN1CCN(C(C(=O)NC2CCCC2)c2cc3c(cc2[N+](=O)[O-])OCO3)CC1 (configuration not stated)"
  inhibition: "2.26% (inactive)"
- Compound: "COc1cccc(/C=N/NC(=O)c2cccc([N+](=O)[O-])c2)c1OS(=O)(=O)c1ccc(C)cc1"
  inhibition: "-5.41% (inactive)"
- Compound: "CCn1c(SCC(=O)Nc2cc(C)ccc2C)nnc1-c1cnccn1"
  inhibition: "62.3% (active)"
- Compound: "CC(C)C(=O)Nc1oc(-c2ccccc2)cc1C#N"
  inhibition: "8.16% (inactive)"
- Compound: "CC(=O)Nc1cc(C(=O)O)ccc1S(=O)(=O)c1ccc(Cl)cc1"
  inhibition: "8.84% (inactive)"
- Compound: "O=C(Nc1ccc2ccccc2c1)/C(=C/c1cccc(Br)c1)NC(=O)c1ccco1"
  inhibition: "17.2% (inactive)"
- Compound: "COc1ccccc1N1CCN(/N=C\\C(Br)=C\\c2ccccc2)CC1"
  inhibition: "15.4% (inactive)"
- Compound: "COc1ccc(Cn2nnc3c(=O)[nH]c(C4CCN(C(=O)c5ccccc5Cl)CC4)nc32)cc1"
  inhibition: "94.1% (active)"
- Compound: "CSc1ccc(/C=N/N2CCN(Cc3ccccc3Cl)CC2)cc1"
  inhibition: "43.5% (inactive)"
- Compound: "Cc1ccccc1NC(=S)N(CCCN1CCOCC1)Cc1cccs1"
  inhibition: "20.9% (inactive)"
- Compound: "CSC1=N/C(=C\\c2ccc3c(c2)OCO3)C(=O)S1"
  inhibition: "6.07% (inactive)"
- Compound: "Clc1ccccc1SCc1nc2ccccc2[nH]1"
  inhibition: "39.4% (inactive)"
- Compound: "O=C(O)CCC(=O)N(Cc1ccco1)c1nc(-c2ccccc2)cs1"
  inhibition: "-21.3% (inactive)"
- Compound: "CC(=O)OC(COc1ccc(F)cc1)Cn1cnc2ccccc21 (configuration not stated)"
  inhibition: "-0.37% (inactive)"
- Compound: "O=[N+]([O-])c1ccc(Sc2n[nH]c(-c3ccco3)n2)nc1"
  inhibition: "-3.94% (inactive)"
- Compound: "Cn1ccc(=NC=C(C#N)C#N)c2ccccc21"
  inhibition: "-8.61% (inactive)"
- Compound: "O=C(Nc1ccc(F)cc1)N1CCCC(c2nc3c(nnn3Cc3ccccc3Cl)c(=O)[nH]2)C1 (configuration not stated)"
  inhibition: "-0.5% (inactive)"
- Compound: "CC(Oc1ccc2ccccc2c1)C(=O)NNC(=S)NC(=O)c1ccco1 (configuration not stated)"
  inhibition: "86.5% (active)"
- Compound: "O=C(O)/C=C/c1ccc(S(=O)(=O)N2CCCCCC2)cc1"
  inhibition: "-9.59% (inactive)"
- Compound: "O=C(Nc1ccc(Cl)cc1)c1ccsn1"
  inhibition: "12.9% (inactive)"
- Compound: "CCOC(=O)Cc1csc(NC(=O)CSc2ccc(Br)cc2)n1"
  inhibition: "31.2% (inactive)"
- Compound: "Cc1ccccc1-c1n[nH]c(=S)n1C"
  inhibition: "-5.68% (inactive)"
- Compound: "Cc1ccc(-c2csc(NC(=O)c3cccs3)n2)cc1"
  inhibition: "22.4% (inactive)"
- Compound: "Cc1cccc(C)c1NC(=O)C1(N(C(=O)c2ccccn2)c2ccc(O)cc2)CCCCC1"
  inhibition: "0.64% (inactive)"
- Compound: "CCCc1ccc(OCC(=O)NNC(=S)NC(=O)c2ccco2)cc1"
  inhibition: "87.8% (inactive)"
- Compound: "Cc1cccc(C2=N/C(=C/c3cccs3)C(=O)O2)c1"
  inhibition: "-7.49% (inactive)"
- Compound: "CC(C)c1ccc(OCC(O)Cn2cnc3ccccc32)cc1 (configuration not stated)"
  inhibition: "95.7% (active)"
- Compound: "Cc1cccc(NC(=S)Nc2ccc3cn[nH]c3c2)c1"
  inhibition: "3.94% (inactive)"
- Compound: "O=C1/C(=C/c2cccs2)CCC1C1CCCC1 (configuration not stated)"
  inhibition: "9.28% (inactive)"
- Compound: "Cc1cc(C)n(-c2nnc(N3CCN(c4ccccc4)CC3)nn2)n1"
  inhibition: "12.1% (inactive)"
- Compound: "COc1ccc(C2CC(c3cccs3)=NN2C(=O)CSc2nnc(N)s2)cc1OC (configuration not stated)"
  inhibition: "-8.12% (inactive)"
- Compound: "c1ccc2c(CSCc3nc4ccccc4[nH]3)cccc2c1"
  inhibition: "74.6% (active)"
- Compound: "O=C(CS(=O)(=O)Cc1ccccc1)Nc1cccnc1"
  inhibition: "90.1% (active)"
- Compound: "Cc1ccc(-c2csc(NC(=O)c3cnccn3)n2)cc1C"
  inhibition: "-10.3% (inactive)"

====

assay: growth inhibition of WT strain, primary screen, mitochondrial fusion inhibitor project, WT and mutant strains, chemical genetic (AID 1362); conditions: mitochondrial fusion phenotypic screen, WT strain, growth inhibition; at 10 µM; hits give high values
Hit rate of the full screen: of about 190,000 compounds, about 4,000 (2.1%) were called active. Many of the other results were omitted from the sample, so actives are more common in it than they were.

- Molecule: "Cc1cc2ncn(CCCCOc3ccccc3)c2cc1C"
  inhibition: "62.5% (active)"
- Molecule: "Clc1ccc(CSc2nnc(/C=C/c3ccccc3)o2)c(Cl)c1"
  inhibition: "38% (inactive)"
- Molecule: "CN(C)CCSc1nc(N)c2c3c(sc2n1)COC(C)(C)C3"
  inhibition: "-20.9% (inactive)"
- Molecule: "CC1(C)C=C2[C@H]3CC[C@@H]4[C@@]5(C)CCC(=O)C(C)(C)[C@@H]5CC[C@@]4(C)[C@]3(C)CC[C@@]2(C(=O)O)CC1"
  inhibition: "59.1% (active)"
- Molecule: "COc1ccccc1NC(=O)C1=C(C)Nc2nnnn2C1c1cccc(Br)c1 (stereo not drawn)"
  inhibition: "-12.6% (inactive)"
- Molecule: "CC1CC(=S)Nc2ccccc2N1Cc1ccccc1 (stereo not drawn)"
  inhibition: "65.9% (active)"
- Molecule: "CN(C)CCN=c1cc(-c2ccccc2)oc2ccc(Cl)cc12"
  inhibition: "10.8% (inactive)"
- Molecule: "COCCC(=O)Nc1ccc2c(c1)CN(C(=O)CCOC)CC2"
  inhibition: "-15.9% (inactive)"
- Molecule: "CCC1(C)Cc2c(sc3nc(SC)nc(N)c23)CO1 (stereo not drawn)"
  inhibition: "-20.9% (inactive)"
- Molecule: "Cc1ccc(-n2cc(CN(C)Cc3nccn3C)c(-c3cccc(C)c3)n2)cc1"
  inhibition: "78.8% (active)"
- Molecule: "CC(=O)Nc1ccc(S(=O)(=O)N(C)c2ccc(OCC(=O)OCC(=O)N3CCCCC3)cc2)cc1"
  inhibition: "0.1% (inactive)"
- Molecule: "CC(C)(C)NC(=O)CN1CCC(NC(=O)C23CC4CC(CC(C4)C2)C3)CC1"
  inhibition: "-5.35% (inactive)"
- Molecule: "CSc1cccc(NC(=S)N(C(C)C)C(C)c2ccccn2)c1 (stereo not drawn)"
  inhibition: "31.2% (inactive)"
- Molecule: "S=C(NCc1ccc(Cl)cc1)NC1CCCCC1"
  inhibition: "68% (active)"
- Molecule: "Cc1ccc(Sc2cc(N3CCOCC3)nc(-c3ccccc3)n2)cc1"
  inhibition: "-0.33% (inactive)"
- Molecule: "O=S1(=O)CCC(NC(=S)SCc2ccccc2Br)C1 (stereo not drawn)"
  inhibition: "-2.13% (inactive)"
- Molecule: "Cc1ccc2c(c1)C1CN(C)CCC1N2C(=S)Nc1ccc(OC(F)F)cc1 (stereo not drawn)"
  inhibition: "17.8% (inactive)"
- Molecule: "COC(=O)c1ccc(C2C3=C(Nc4nnnn42)c2ccccc2OC3)cc1 (stereo not drawn)"
  inhibition: "98.5% (active)"
- Molecule: "CSc1cccc(NC(=S)N(Cc2ccccc2)Cc2ccccn2)c1"
  inhibition: "65.9% (active)"
- Molecule: "COc1cccc2cc(S(=O)(=O)c3ccc(C)cc3)/c(=N/NS(=O)(=O)c3ccc(C)cc3)oc12"
  inhibition: "-19.1% (inactive)"
- Molecule: "CC1CC(C)(C)NC(=S)N1CCC(=O)N1CCN(Cc2ccccc2)CC1 (stereo not drawn)"
  inhibition: "-6.52% (inactive)"
- Molecule: "COc1ccc(-c2ccc(CNCCCN3CCOCC3)o2)cc1Cl"
  inhibition: "6.85% (inactive)"
- Molecule: "COc1ccc(-n2cc(CN(C)Cc3n[nH]c(=O)[nH]3)c(-c3cccc(F)c3)n2)cc1"
  inhibition: "7.75% (inactive)"
- Molecule: "O=C(c1cc(Cl)cc(Cl)c1)N1CCC(=O)N(C(COCc2ccccc2)Cc2ccccc2)CC1 (stereo not drawn)"
  inhibition: "71.4% (active)"
- Molecule: "CC(=O)N1CCN(S(=O)(=O)c2c(F)cc(F)c(Cl)c2F)CC1"
  inhibition: "-3.19% (inactive)"
- Molecule: "Cc1ccc2c(c1)C1CN(C)CCC1N2S(=O)(=O)c1ccc(Oc2ccc([N+](=O)[O-])cc2)cc1 (stereo not drawn)"
  inhibition: "78.9% (active)"
- Molecule: "CCS(=O)(=O)Nc1cccc(-c2cc(-c3ccccc3)c3cc(C)ccc3n2)c1"
  inhibition: "69.3% (active)"
- Molecule: "Cc1cc(C)cc(NS(=O)(=O)c2ccc(Oc3ncc(C(F)(F)F)cc3Cl)cc2)c1"
  inhibition: "75.5% (active)"
- Molecule: "O=C(CCCn1c(=O)c2sccc2n(CC(=O)NCC2CCCO2)c1=O)NCc1ccco1 (stereo not drawn)"
  inhibition: "2.48% (inactive)"
- Molecule: "O=c1cc(CSc2ccc(Cl)cc2)nc(N2CCOCC2)[nH]1"
  inhibition: "10.4% (inactive)"
- Molecule: "COCCCNC(=O)Cn1c(=O)n(Cc2ccccc2Cl)c(=O)c2cc(OC)c(OC)cc21"
  inhibition: "-6.28% (inactive)"
- Molecule: "C=CCOc1c(CNn2cn[nH]c2=S)cccc1OC"
  inhibition: "-4.69% (inactive)"
- Molecule: "O=C1c2ccccc2NC(c2ccccn2)N1NS(=O)(=O)c1ccccc1 (stereo not drawn)"
  inhibition: "-4.85% (inactive)"
- Molecule: "O=C(NC1(C(F)(F)F)NC(=O)N(C2CCCCC2)C1=O)c1ccco1 (stereo not drawn)"
  inhibition: "-16.6% (inactive)"
- Molecule: "COc1cc(/C=C/C(=O)OCC(=O)NC(=O)NCc2ccccc2)ccc1OCC#N"
  inhibition: "6.54% (inactive)"
- Molecule: "O=C1NC(Nc2nc3ccccc3s2)(C(F)(F)F)C(=O)N1C1CCCCC1 (stereo not drawn)"
  inhibition: "68.5% (active)"
- Molecule: "S=C(NCc1ccco1)Nc1ccc2c(c1)OCCO2"
  inhibition: "-2.47% (inactive)"
- Molecule: "CSCc1cc(N2CCOCC2)nc(SCc2ccc(Cl)cc2Cl)n1"
  inhibition: "79.1% (active)"
- Molecule: "CCCSc1nc(NCc2ccco2)c2c3c(sc2n1)COC(C)(CC)C3 (stereo not drawn)"
  inhibition: "58.6% (active)"
- Molecule: "COc1cc(NC(=S)NCc2ccc(S(N)(=O)=O)cc2)cc(OC)c1"
  inhibition: "-1.93% (inactive)"
- Molecule: "Cc1ccc2nc(-c3ccccc3)cc(C(=O)O)c2c1"
  inhibition: "3.84% (inactive)"
- Molecule: "CCN1CN(Cc2ccccc2)CNC1=S"
  inhibition: "1.7% (inactive)"
- Molecule: "O=C(O)c1ccc(N/N=C/c2cn(-c3ccccc3)nc2-c2cccs2)cc1"
  inhibition: "25% (inactive)"
